Listed compounds paired with reported EC50
# System: YFV strain 17D (Stamaril) on Huh-7 cells
# Experimental Details: microbe, parasite or virus in culture
# Assay type: cell-based, yellow fever virus
# Condition Summary: Yellow fever virus, Huh-7

Below: 2 compounds and their reported EC50.
| Compound | Data Value |
| --- | --- |
| c1ccc2c(c1)nc(-c1cc3cc(Cc4ccc5oc(-c6nc7ccccc7n6C6CCCC6)cc5c4)ccc3o1)n2C1CCCC1 | > 162 µM |
| O=Cc1cc2cc(Cc3ccc4oc(C=O)cc4c3)ccc2o1 | > 329 µM |

Please find the next compound below.
In: Item under review: COc1ccc(N2C(=O)CN(C)C2c2cc3cc(Cc4ccc5oc(C6N(C)CC(=O)N6c6ccc(OC)cc6)cc5c4)ccc3o2)cc1 (stereo not drawn) . Reported EC50?
Out: > 152 µM
